- Tested on: green foxtail
- assay_comment: Test C postemergence
- Assay type: in vivo, Setaria viridis
- measurement_context: Postemergence, 125 g ai/ha; 0 to 100 scale (0 no effect, 100 complete control), 10 days

{"compound": "CCOC[C@H]1CN(C(=O)c2cc(-n3cnc(C(C)(C)C)n3)ccc2C)c2cccc(Cl)c2O1", "Plant response rating, Foxtail, Green": 10}
{"compound": "Cc1cccc2c1OC(C(F)(F)F)CN2C(=O)c1cccc(-n2cnc(C(C)C)n2)c1 (racemic) [Compound 301]", "Plant response rating, Foxtail, Green": 10}
{"compound": "Cc1cccc2c1OC(C(F)(F)F)CN2C(=O)c1cccc(-n2cnc(C(C)C)n2)c1 (single isomer, unassigned) [Compound 303]", "Plant response rating, Foxtail, Green": 50}
